Molecular target: G-protein coupled bile acid receptor 1 (Homo sapiens)
Sequence (Q8TDU6 whole entry): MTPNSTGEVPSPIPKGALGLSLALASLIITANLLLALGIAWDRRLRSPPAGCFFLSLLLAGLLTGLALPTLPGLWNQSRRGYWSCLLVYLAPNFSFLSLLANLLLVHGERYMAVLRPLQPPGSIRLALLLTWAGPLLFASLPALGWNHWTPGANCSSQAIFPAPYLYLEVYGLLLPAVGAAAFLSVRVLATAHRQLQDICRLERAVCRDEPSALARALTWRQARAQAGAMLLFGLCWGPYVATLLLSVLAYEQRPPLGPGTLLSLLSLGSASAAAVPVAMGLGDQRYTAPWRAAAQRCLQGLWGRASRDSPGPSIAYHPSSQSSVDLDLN
Test: Agonist activity at human TGR5 expressed in HEK293-A cells co-transfected with EPAC-based FRET biosensor incubated for 18 hrs by CRE-luciferase reporter gene assay
Assay type: functional, cell-based
observable: pEC50
Worth noting: pEC50 values are minus log10 of concentrations stated in mol/L.

For this molecule ( CC1(C)c2ccccc2CCN1CC(=O)NC[C@@H]1Cc2ccccc2O1 ), measured pEC50 is 4.72
